- measured_on: T1, cynomolgus TNFSF9 (cTNFSF9) protein, soluble recombinant (cynomolgus)
- T1 construct: extracellular domain; also called cynomolgus TNFSF9 protein
- assay_comment: SPR (Biacore)
assay_readout: Kd

- SC113.36 (antibody, mouse IgG1, V domains shown, mouse IgG1) VH: QVQLKESGPDLVAPSQSLSITCTVSGFSLTSYGVHWVRQPPGKGLEWLGVIWAGGFTNYNSALMSRLSISKDNSKSQVFLKMSSLQTDDTAMYYCVREKDYRYSHYFDYWGQGTTLTVSS VL: DIVMSQSPSSLAVSVGEKVTLSCKSSLSLLYSSNQENYLAWYQQKPGQSPKLLIYWASTRESGVPDRFTGSGSGTDFTLTISSVKAEDLAVYYCQQYYSYPRTFGGGTKLEIK: 12 nM
